# target or test system: RORγ LBD-GST tagged (Homo sapiens)
# Construct: RORγ LBD-GST tagged (Cat No. RORC-114H, Creative Biomart); purchased Creative Biomart RORC-114H
# Sequence (P51449 269-508 limits assumed): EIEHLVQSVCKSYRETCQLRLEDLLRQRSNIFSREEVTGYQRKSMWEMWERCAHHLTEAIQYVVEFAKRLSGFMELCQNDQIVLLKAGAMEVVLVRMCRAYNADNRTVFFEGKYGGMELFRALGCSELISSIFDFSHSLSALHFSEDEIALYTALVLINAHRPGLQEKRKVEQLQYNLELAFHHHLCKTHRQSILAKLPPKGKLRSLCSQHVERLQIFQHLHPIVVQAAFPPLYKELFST
# assay explanation: LanthaScreen TR-FRET RORγ coactivator assay
# Type: biochemical
# condition summary: Fluorescein-D22 coactivator peptide, 1 hour room temperature
# Description: LanthaScreen TR-FRET Retinoid-Related Orphan Receptor Gamma (RORγ) Coactivator Assay Materials and Reagents • 1. […] Fluorescein-D22 coactivator peptide (Cat No. PV4386, Invitrogen) • 3. […] Tecan Infinite M1000 plate reader (Tecan) Experimental Procedure Prepare Complete TR-FRET Coregulator Buffer D by adding 1 M DTT to TR-FRET Coregulator Buffer D to the final concentration of 5 mM DTT. […] Read the plate at wavelengths of 520 nm and 495 nm on Tecan Infinite M1000. […]
measure: IC50 (µM)

Check out these entries, answers already filled in.
compound: CCS(=O)(=O)c1ccc(C(O)c2nc3cc(-c4ccccc4OC(F)(F)F)c(F)cc3[nH]2)cc1 (centres unmarked)
measure: IC50
numeric result: 0.966

compound: CCS(=O)(=O)c1ccc(Cc2nc3c(Cl)c(-c4ccccc4C(F)(F)F)c(Cl)cc3[nH]2)cc1
measure: IC50
numeric result: 0.373

P. O=S(=O)(CCF)c1ccc(Cc2nc3c(Cl)c(-c4ccccc4OC(F)(F)F)c(Cl)cc3[nH]2)cc1
Q. CCS(=O)(=O)c1ccc(Cc2nc3c(Cl)c(-c4ccccc4OC(F)F)c(Cl)cc3[nH]2)cc1
R. O=S(=O)(CC1CC1)c1ccc(C(CCO)c2nc3cc(Cl)c(N4CCC(F)(F)CC4)c(Cl)c3[nH]2)cc1 (centres unmarked) [Example 157]
// query List items by IC50 in falling order. List the labels according to the requested ordering.
// result P, Q, R
(P: 0.509 µM, Q: 0.045 µM, R: 0.007 µM)

* * *

# target or test system: RORγ LBD-GST tagged (Homo sapiens, UniProt P51449)
# Construct: RORγ LBD-GST tagged (Cat No. RORC-114H, Creative Biomart); purchased Creative Biomart RORC-114H
# assay explanation: LanthaScreen TR-FRET RORγ coactivator assay
# Format: biochemical
# condition summary: Fluorescein-D22 coactivator peptide, 1 hour room temperature
measure: IC50 (µM)

molecule: CCOc1ccccc1-c1c(Cl)cc2[nH]c(C(O)c3ccc(S(=O)(=O)CC)cc3)nc2c1Cl (stereo not shown) [Example 18]
target or test system: RORγ LBD-GST tagged (Homo sapiens, UniProt P51449)
uom: µM
IC50: 0.013

P. CS(=O)(=O)c1ccc(Cc2nc3c(Cl)c(-c4ccccc4OC(F)(F)F)c(Cl)cc3[nH]2)cc1 [Example 56]
Q. CCS(=O)(=O)c1ccc(C(CO)c2nc3c(Cl)c(-c4ccccc4F)c(Cl)cc3[nH]2)cc1 (stereo not shown) [Example 11]
R. CCS(=O)(=O)c1ccc(C(CO)c2nc3c(Cl)c(-c4ccccc4OC(F)(F)F)c(Cl)cc3[nH]2)c(F)c1 (stereo not shown) [Example 77]
S. CCS(=O)(=O)c1ccc(Cc2nc3c(Cl)c(-c4ccccc4OC(F)(F)F)c(Cl)cc3[nH]2)c(Cl)c1 [Example 86]
// query List items by IC50 in falling order. List the labels according to the requested ordering.
// result P, Q, S, R

I. COCCS(=O)(=O)c1ccc(Cc2nc3c(Cl)c(-c4ccccc4OC(F)(F)F)c(Cl)cc3[nH]2)cc1 [Example 53]
II. CCS(=O)(=O)c1ccc(C(O)c2nc3c(Cl)c(-c4ccccc4OC(F)(F)F)c(Cl)cc3[nH]2)c(F)c1 (stereo not shown) [Example 78]
// query Given I and given II , which shows the smaller recorded IC50? The response must carry the label of the picked entry.
// result II

P. O=S(=O)(CC1CC1)c1ccc(Cc2nc3cc(Cl)c(N4CCC(F)(F)CC4)c(Cl)c3[nH]2)cc1 [Example 127]
Q. CCS(=O)(=O)c1ccc(C(CO)c2nc3c(Cl)c(-c4ccccc4OCOC)c(Cl)cc3[nH]2)cc1 (stereo not shown) [Example 14]
// query Param pair: P , Q . Output: the one whose IC50 is numerically greater. The response must carry the label of the picked entry.
// result P

* * *

# target or test system: RORγ LBD-GST tagged (Homo sapiens, UniProt P51449)
# Construct: RORγ LBD-GST tagged (Cat No. RORC-114H, Creative Biomart); purchased Creative Biomart RORC-114H
# assay explanation: LanthaScreen TR-FRET RORγ coactivator assay
# Assay type: biochemical
# condition summary: Fluorescein-D22 coactivator peptide, 1 hour room temperature
measure: IC50 (µM)

Check out these entries, answers already filled in.
compound: CCS(=O)(=O)c1ccc(C(O)c2nc3c(Cl)c(-c4ccccc4F)c(Cl)cc3[nH]2)cc1 (stereo not shown) [Example 12]
target or test system: RORγ LBD-GST tagged (Homo sapiens, UniProt P51449)
uom: µM
IC50: 0.106
--
compound: O=S(=O)(CC1CC1)c1ccc(C(CCN2CCOCC2)c2nc3cc(-c4ccccc4OC(F)F)c(Cl)cc3[nH]2)cc1 (single isomer, unassigned) [164 or 165 made from Int-164A]
target or test system: RORγ LBD-GST tagged (Homo sapiens, UniProt P51449)
uom: µM
IC50: 1.25
--
compound: O=S(=O)(NC1CC1)c1ccc(Cc2nc3c(Cl)c(-c4ccccc4OC(F)(F)F)c(Cl)cc3[nH]2)cc1 [Example 122]
target or test system: RORγ LBD-GST tagged (Homo sapiens, UniProt P51449)
uom: µM
IC50: 0.049
--
compound: CCS(=O)(=O)c1ccc(C(CO)c2nc3c(F)c(-c4ccccc4)c(F)cc3[nH]2)cc1 (stereo not shown) [Example 114]
target or test system: RORγ LBD-GST tagged (Homo sapiens, UniProt P51449)
uom: µM
IC50: 0.564

1. O=S(=O)(CC1CC1)c1ccc(C(O)c2nc3c(Cl)c(-c4ccccc4OC(F)(F)F)c(Cl)cc3[nH]2)c(Cl)c1 (stereo not shown) [Example 92]
2. CC(C)Oc1ccccc1-c1cc2nc(C(CC(N)=O)c3ccc(S(=O)(=O)CC4CC4)cc3)[nH]c2cc1Cl (single isomer, unassigned)
// query Given 1 and given 2 , which shows the smaller recorded IC50? The response must carry the label of the picked entry.
// result 1

1. CCS(=O)(=O)c1ccc(C(CO)c2nc3c(Cl)c(-c4ccsc4)c(Cl)cc3[nH]2)cc1 (stereo not shown) [Example 25]
2. CCS(=O)(=O)c1ccc(C(CO)c2nc3c(Cl)c(-c4ccccc4OC(F)F)c(Cl)cc3[nH]2)cc1 (stereo not shown) [Example 29]
3. O=S(=O)(CC1CC1)c1ccc(C(CCO)c2nc3cc(-c4ccccc4OC(F)F)c(Cl)cc3[nH]2)cc1 (single isomer, unassigned)
// query List items by IC50 in falling order. List the labels according to the requested ordering.
// result 1, 2, 3
(1: 0.789 µM, 2: 0.269 µM, 3: 0.081 µM)

* * *

Listed next: entries and their corresponding IC50.
# Tested on: IL-17 production, human PBMC cells
# assay explanation: IL-17 production assay using human PBMC
# Type: cell-based
# condition summary: Homo sapiens, PBMC, 72 h, human PBMC stimulated by cytostim for 3 days, IL-17 ELISA of supernatant
# Excerpt: Test Example 2. IL-17 Production Assay Using Human PBMC • 1. Human PBMC cells (Cat No. 70025.1, Zenbio) • 2. Lymphocyte medium (Cat No. LYMPH-1, Zenbio) • 3. TexMACS (Cat No. 130-097-196, Miltenyi) • 4. Cytostim-human (Cat No. 1130-092-173, Miltenyi) • 5. Human IL-17 ELISA (Cat No. D1700, R&D systems) • 6. Tecan Infinite M1000 plate reader (Tecan) Experimental Procedure for IL-17 Production Assay […]
Supply the numeric figure in µM, leaving out any unit text.

compound: CCS(=O)(=O)c1ccc(Cc2nc3c(Cl)c(-c4ccccc4C(F)(F)F)c(Cl)cc3[nH]2)cc1
measure: IC50
uom: µM
numeric result: 0.052

compound: CCS(=O)(=O)c1ccc(Cc2nc3c(Cl)c(-c4ccccc4OCCOC)c(Cl)cc3[nH]2)cc1
measure: IC50
uom: µM
numeric result: 0.343

compound: NC(=O)CC(c1ccc(S(=O)(=O)CC2CC2)cc1)c1nc2cc(Cl)c(-c3ccccc3OC(F)F)c(Cl)c2[nH]1 (centres unmarked)
measure: IC50
uom: µM
numeric result: 0.187

compound: O=S(=O)(CC1CC1)c1ccc(C(O)c2nc3c(Cl)c(-c4ccccc4OC(F)(F)F)c(Cl)cc3[nH]2)cc1 (centres unmarked)
measure: IC50
uom: µM
numeric result: 0.004

compound: O=S(=O)(CC1CC1)c1ccc(C(CO)c2nc3c(Cl)c(-c4ccccc4OC(F)(F)F)c(Cl)cc3[nH]2)c(F)c1 (centres unmarked)
measure: IC50
uom: µM
numeric result: 0.003

// query Param item = O=S(=O)(CC1CC1)c1ccc(C(CO)c2nc3c(Cl)c(-c4ccccc4OC(F)(F)F)c(Cl)cc3[nH]2)cc1 (centres unmarked) ; retrieve measured IC50.
// result 0.002

// query Param item = O=S(=O)(CC1CC1)c1ccc(C(CCN2CCOCC2)c2nc3cc(-c4ccccc4OC(F)F)c(Cl)cc3[nH]2)cc1 (single isomer, unassigned) [164 or 165 made from Int-164A] ; retrieve measured IC50.
// result 0.28
